Molecular target: human E3 ligase component cereblon (CRBN) (Homo sapiens)
Sequence (Q96SW2 whole entry): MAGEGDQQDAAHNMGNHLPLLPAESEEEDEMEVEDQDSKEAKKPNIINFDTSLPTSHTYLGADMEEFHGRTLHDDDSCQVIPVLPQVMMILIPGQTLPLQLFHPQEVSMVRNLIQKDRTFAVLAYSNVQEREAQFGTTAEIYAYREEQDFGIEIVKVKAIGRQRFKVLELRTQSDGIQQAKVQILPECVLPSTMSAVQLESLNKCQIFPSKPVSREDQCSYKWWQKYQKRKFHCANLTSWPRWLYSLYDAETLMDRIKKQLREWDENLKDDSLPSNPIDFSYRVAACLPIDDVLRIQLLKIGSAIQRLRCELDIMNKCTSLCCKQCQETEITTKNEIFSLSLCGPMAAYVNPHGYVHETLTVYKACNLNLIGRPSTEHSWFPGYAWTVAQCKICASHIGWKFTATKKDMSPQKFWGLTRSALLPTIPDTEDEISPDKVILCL
Sequence (Q16531 whole entry partner): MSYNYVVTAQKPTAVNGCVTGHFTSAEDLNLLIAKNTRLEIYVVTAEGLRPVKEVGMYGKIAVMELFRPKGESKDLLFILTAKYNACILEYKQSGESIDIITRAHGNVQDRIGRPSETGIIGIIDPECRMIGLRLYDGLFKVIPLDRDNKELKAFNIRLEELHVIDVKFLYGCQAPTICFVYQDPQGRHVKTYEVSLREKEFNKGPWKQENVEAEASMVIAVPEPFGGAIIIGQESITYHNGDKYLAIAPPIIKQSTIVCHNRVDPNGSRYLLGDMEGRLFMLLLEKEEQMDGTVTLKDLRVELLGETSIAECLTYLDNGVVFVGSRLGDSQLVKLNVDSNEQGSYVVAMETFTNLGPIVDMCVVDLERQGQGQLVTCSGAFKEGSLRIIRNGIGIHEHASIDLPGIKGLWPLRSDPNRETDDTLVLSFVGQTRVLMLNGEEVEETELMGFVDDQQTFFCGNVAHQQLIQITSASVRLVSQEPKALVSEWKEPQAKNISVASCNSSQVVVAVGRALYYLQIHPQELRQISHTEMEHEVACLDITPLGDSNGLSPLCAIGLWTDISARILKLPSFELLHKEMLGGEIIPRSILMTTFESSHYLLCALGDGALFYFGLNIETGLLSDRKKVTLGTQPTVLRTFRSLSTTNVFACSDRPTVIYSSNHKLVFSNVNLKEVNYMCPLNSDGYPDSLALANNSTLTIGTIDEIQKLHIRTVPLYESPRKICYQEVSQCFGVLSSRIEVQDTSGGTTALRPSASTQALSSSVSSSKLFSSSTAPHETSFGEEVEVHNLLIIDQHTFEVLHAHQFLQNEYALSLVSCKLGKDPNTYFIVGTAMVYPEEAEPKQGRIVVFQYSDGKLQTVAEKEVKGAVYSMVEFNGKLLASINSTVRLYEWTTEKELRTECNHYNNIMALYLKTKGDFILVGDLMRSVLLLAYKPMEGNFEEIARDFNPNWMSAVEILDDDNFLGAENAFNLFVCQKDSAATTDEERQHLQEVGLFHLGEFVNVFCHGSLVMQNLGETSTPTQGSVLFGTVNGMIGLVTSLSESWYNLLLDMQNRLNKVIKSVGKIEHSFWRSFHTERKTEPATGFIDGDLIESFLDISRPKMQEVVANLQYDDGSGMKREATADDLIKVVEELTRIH
Experiment: Cereblon (CRBN) target engagement, NanoBRET TE Intracellular E3 Ligase Assay in transfected HEK-293T cells
Settings: read-out: CRBN Binding EC50
Assay Readout: pEC50
Reminder that pEC50 means the negative base-10 logarithm of the concentration expressed in mol/L.

Guide cases for pEC50, answers given:
O=C1CCC(N2Cc3cc(O[C@@H]4CCCC[C@@H]4N4CC(c5ccc(C(F)(F)F)cn5)C4)ccc3C2=O)C(=O)N1 (mixture of isomers)
8.05
O=C1CCC(N2Cc3cc(O[C@H]4CCCC[C@@H]4N4CC(c5ccc(C(F)(F)F)cn5)C4)ccc3C2=O)C(=O)N1 (single isomer, unassigned) [Compound 130-B]
8.00
CC1CC1C(=O)N1CCC(C2CN([C@H]3CCCC[C@@H]3Oc3ccc4c(c3)CN(C3CCC(=O)NC3=O)C4=O)C2)CC1 (stereo partly drawn)
8.10

Note to self: pEC50 recorded for O=C1CCC(N2Cc3cc(O[C@H]4CCCC[C@@H]4N4CC(c5ccc6ccccc6n5)C4)ccc3C2=O)C(=O)N1 (single isomer, unassigned) [Compound 90-B] was 8.22

Note to self: pEC50 recorded for O=C1CCC(N2Cc3cc(O[C@H]4CCCC[C@H]4N4CC(c5ncc(C(F)(F)F)cn5)C4)ccc3C2=O)C(=O)N1 (single isomer, unassigned) [Compound 121-B] was 8.30

Note to self: pEC50 recorded for O=C1CCC(N2Cc3cc(O[C@@H]4CCCC[C@@H]4N4CC(c5ccc6ccccc6n5)C4)ccc3C2=O)C(=O)N1 (mixture of isomers) [Compound 146-B] was 7.92

Note to self: pEC50 recorded for O=C1CCC(N2Cc3cc(O[C@@H]4CCCC[C@H]4N4CC(c5ncc(C6CC6)cn5)C4)ccc3C2=O)C(=O)N1 (single isomer, unassigned) [Compound 132-B] was 8.52

Note to self: pEC50 recorded for O=C1CCC(N2Cc3cc(O[C@H]4CCCC[C@@H]4N4CC(C5CCOC5)C4)ccc3C2=O)C(=O)N1 (stereo partly drawn) was 7.41
